FYI, the data here is from patent US20260285850A1.

# System: barnyardgrass (Echinochloa crus-galli)
# Test Name: Test A postemergence application, visual injury rating 0-100
# Assay type: in vivo
# Experimental Setup: Postemergence, 31 g ai/ha, greenhouse 10 days; 0 no effect, 100 complete control
# From the text: […]
Metric Name: Barnyardgrass plant response rating (0 to 100 scale)
Give only the figure.

[[record]]
compound = "CC1(C(=O)NC2C=CC(C(=O)NS(=O)(=O)C3CC3)C2)CN(c2cc(Cl)cc(Cl)c2)C(=O)O1 (stereo not drawn) [Compound 85]"
recorded_number = 90


Barnyardgrass plant response rating (0 to 100 scale) reading for CC(C)OC(=O)C1=CCC(NC(=O)C2(C)CN(c3cc(Cl)cc(Cl)c3)C(=O)O2)C1 (stereo not drawn) [Compound 70] : 90

Reported Barnyardgrass plant response rating (0 to 100 scale) for CC1(C(=O)NC2C=CC(C(=O)NS(=O)(=O)c3ccccc3)C2)CN(c2cc(F)cc(F)c2)C(=O)O1 (stereo not drawn) [Compound 88] was 100

* * *

# Test system: green foxtail (Setaria viridis)
# Test Name: Test A preemergence soil spray, visual injury rating 0-100
# Format: in vivo
# Experimental Setup: 31 g ai/ha, 10 days, 0 = no effect, 100 = complete control
Listed below: Foxtail, Green plant response rating (0-100) values for each entry.
The answer should be a number; do not append a unit.

Examples with answers:
[[record]]
compound = "COC(=O)C1=CC[C@H](NC(=O)C2(C)CN(c3cc(F)cc(F)c3)C(=O)O2)C1 (mixture of isomers)"
recorded_number = 0

[[record]]
compound = "CC1(C(=O)NC2CCC(C(=O)O)C2)CN(c2cc(F)cc(F)c2)C(=O)O1 (stereo not shown)"
recorded_number = 0

[[record]]
compound = "CCOC(=O)COC(=O)C1C=CC(NC(=O)C2(C)CN(c3cc(F)cc(F)c3)C(=O)O2)C1 (stereo not shown)"
recorded_number = 0

[[record]]
compound = "CNC(=O)C1CC(NC(=O)C2(C)CN(c3cc(F)cc(F)c3)C(=O)O2)CO1 (stereo not shown)"
recorded_number = 0


Record CCOC(=O)C1CCC(NC(=O)C2(C)CN(c3cc(F)cc(F)c3)C(=O)O2)C1 (stereo not shown) , field Foxtail, Green plant response rating (0-100): 0

Measured Foxtail, Green plant response rating (0-100) of CC1(C(=O)NC2C=CC(C(=O)OCc3ccc(F)cc3)C2)CN(c2cc(F)cc(F)c2)C(=O)O1 (stereo not shown) : 0

Per the record, CC(=O)COC(=O)C1C=CC(NC(=O)C2(C)CN(c3cc(Cl)cc(Cl)c3)C(=O)O2)C1 (stereo not shown) has Foxtail, Green plant response rating (0-100) of 20

// Foxtail, Green plant response rating (0-100) value for CCOC(=O)C1CCC(NC(=O)C2(C)CN(c3cc(F)cc(Cl)c3)C(=O)O2)C1 (stereo not shown) : 50

Reported Foxtail, Green plant response rating (0-100) of COC(=O)C1CC(NC(=O)C2(C)CN(c3cc(F)cc(F)c3)C(=O)O2)CO1 (stereo not shown) : 0

Reported Foxtail, Green plant response rating (0-100) for CCOC(=O)C1=CCC(NC(=O)C2(C)CN(c3cc(F)cc(F)c3)C(=O)O2)C1 (stereo not shown) was 30

Foxtail, Green plant response rating (0-100) recorded for this compound, CC(C)OC(=O)C1=CCC(NC(=O)C2(C)CN(c3cc(F)cc(F)c3)C(=O)O2)C1 (stereo not shown) , is 20

Recorded result, CC(C)COC(=O)C1C=CC(NC(=O)C2(C)CN(c3cc(F)cc(F)c3)C(=O)O2)C1 (stereo not shown) , Foxtail, Green plant response rating (0-100): 40

Field Foxtail, Green plant response rating (0-100) (entry CSCCOC(=O)C1=CCC(NC(=O)C2(C)CN(c3cc(F)cc(F)c3)C(=O)O2)C1 (stereo not shown) ) reads 0

* * *

# Test system: kochia (Bassia scoparia)
# Test Name: Test A preemergence soil spray, visual injury rating 0-100
# Assay type: in vivo
# Experimental Setup: 125 g ai/ha, 10 days, 0 = no effect, 100 = complete control
Below, each entry is listed alongside its reported Kochia plant response rating (0 to 100 scale).

# annotated cases, reported Kochia plant response rating (0 to 100 scale) shown
[[record]]
compound = "CC1(C(=O)N[C@H]2C=C[C@@H](C(=O)O)C2)CN(c2cc(F)cc(F)c2)C(=O)O1 (some centres unmarked)"
tgt = "kochia (Bassia scoparia)"
result = 90

[[record]]
compound = "COC(=O)C1=CCC(NC(=O)C2(C)CN(c3cc(Cl)cc(Cl)c3)C(=O)O2)C1 (centres unmarked)"
tgt = "kochia (Bassia scoparia)"
result = 70

[[record]]
compound = "CC1(C(=O)NC2CC=C(C(=O)OCC(F)(F)F)C2)CN(c2cc(F)cc(F)c2)C(=O)O1 (centres unmarked)"
tgt = "kochia (Bassia scoparia)"
result = 100

[[record]]
compound = "CC1(C(=O)NC2CC=C(C(=O)OCC(F)(F)F)C2)CN(c2cc(Cl)cc(Cl)c2)C(=O)O1 (centres unmarked)"
tgt = "kochia (Bassia scoparia)"
result = 90

[[record]]
compound = "CC(C)COC(=O)C1=CCC(NC(=O)C2(C)CN(c3cc(F)cc(F)c3)C(=O)O2)C1 (centres unmarked)"
tgt = "kochia (Bassia scoparia)"
result = 40

[[record]]
compound = "COC(=O)C1CC(NC(=O)C2(C)CN(c3cc(F)cc(F)c3)C(=O)O2)CO1 (centres unmarked)"
tgt = "kochia (Bassia scoparia)"
result = 0

[[record]]
compound = "CC(C)OC(=O)C1C=CC(NC(=O)C2(C)CN(c3cc(Cl)cc(Cl)c3)C(=O)O2)C1 (centres unmarked)"
tgt = "kochia (Bassia scoparia)"
result = 80

[[record]]
compound = "CC1(C(=O)NC2CC=C(C(=O)NS(=O)(=O)C3CC3)C2)CN(c2cc(Cl)cc(Cl)c2)C(=O)O1 (centres unmarked)"
tgt = "kochia (Bassia scoparia)"
result = 90


Given item CCOC(=O)C1CCC(NC(=O)C2(C)CN(c3cc(F)cc(Cl)c3)C(=O)O2)C1 (centres unmarked) , the value recorded as its Kochia plant response rating (0 to 100 scale) is 90

Consider COC(=O)C1CCC(NC(=O)C2(C)CN(c3cc(F)cc(F)c3)C(=O)O2)C1 (centres unmarked) . Its measured Kochia plant response rating (0 to 100 scale) is 90

In plain terms, CC1(C(=O)NC2C=CC(C(=O)NS(=O)(=O)C3CC3)C2)CN(c2cc(Cl)cc(Cl)c2)C(=O)O1 (centres unmarked) has a documented Kochia plant response rating (0 to 100 scale) of 90

For record CNC(=O)C1CC(NC(=O)C2(C)CN(c3cc(F)cc(F)c3)C(=O)O2)CO1 (centres unmarked) the listed Kochia plant response rating (0 to 100 scale) is 70

Sure, the documented Kochia plant response rating (0 to 100 scale) for COCCOC(=O)C1C=CC(NC(=O)C2(C)CN(c3cc(F)cc(F)c3)C(=O)O2)C1 (centres unmarked) is 90

Entry CNC(=O)C1C=CC(NC(=O)C2(C)CN(c3cc(Cl)cc(Cl)c3)C(=O)O2)C1 (centres unmarked) , Kochia plant response rating (0 to 100 scale) reported as 90

The compound listed as CONC(=O)C1CC(NC(=O)C2(C)CN(c3cc(F)cc(F)c3)C(=O)O2)CO1 (centres unmarked) shows Kochia plant response rating (0 to 100 scale) equal to 0

* * *

Below, each entry is listed with its recorded Ryegrass, Italian plant response rating (0-100).
# Test system: ryegrass, Italian (italian ryegrass, Lolium multiflorum)
# Test Name: Test A postemergence application, visual injury rating 0-100
# Assay type: in vivo
# Experimental Setup: 31 g ai/ha, postemergence, 10 days, 0 = no effect, 100 = complete control

Example results:
[[record]]
compound = "CC(C)OC(=O)C1C=CC(NC(=O)C2(C)CN(c3cc(F)cc(Cl)c3)C(=O)O2)C1 (stereo not drawn)"
result = 60

[[record]]
compound = "CONC(=O)C1CC(NC(=O)C2(C)CN(c3cc(F)cc(F)c3)C(=O)O2)CO1 (stereo not drawn)"
result = 20

[[record]]
compound = "CC(C)OC(=O)C1CCC(NC(=O)C2(C)CN(c3cc(F)cc(F)c3)C(=O)O2)C1 (stereo not drawn)"
result = 60

[[record]]
compound = "CNC(=O)C1CCC(NC(=O)C2(C)CN(c3cc(F)cc(F)c3)C(=O)O2)C1 (stereo not drawn)"
result = 0

[[record]]
compound = "CC1(C(=O)NC2CC=C(C(=O)OCC(F)(F)F)C2)CN(c2cc(F)cc(F)c2)C(=O)O1 (single isomer, unassigned) [Compound 24]"
result = 40


So for CC1(C(=O)NC2CCC(C(=O)NS(C)(=O)=O)C2)CN(c2cc(F)cc(F)c2)C(=O)O1 (stereo not drawn) , the logged Ryegrass, Italian plant response rating (0-100) turned out to be 20

* * *

# System: palmer (palmer amaranth, palmer pigweed, Amaranthus palmeri)
# Test Name: Test A preemergence soil spray, visual injury rating 0-100
# Assay type: in vivo
# Experimental Setup: 125 g ai/ha, 10 days, 0 = no effect, 100 = complete control
Catalogue of Amaranth, Palmer plant response rating (0 to 100 scale) values
Reply with just the number.

Previously resolved entries follow.
[[record]]
compound = "COC(=O)C1=CCC(NC(=O)C2(C)CN(c3cc(Cl)cc(Cl)c3)C(=O)O2)C1 (stereo not drawn)"
recorded_number = 100

[[record]]
compound = "CC1(C(=O)NC2C=CC(C(=O)O)C2)CN(c2cc(Cl)cc(Cl)c2)C(=O)O1 (stereo not drawn)"
recorded_number = 100

[[record]]
compound = "COC(=O)C1C=CC(NC(=O)C2(C)CN(c3cc(Cl)cc(Cl)c3)C(=O)O2)C1 (stereo not drawn)"
recorded_number = 100

[[record]]
compound = "CSCCOC(=O)C1C=CC(NC(=O)C2(C)CN(c3cc(Cl)cc(Cl)c3)C(=O)O2)C1 (stereo not drawn)"
recorded_number = 100


Noted Amaranth, Palmer plant response rating (0 to 100 scale) for CC(C)COC(=O)C1C=CC(NC(=O)C2(C)CN(c3cc(F)cc(F)c3)C(=O)O2)C1 (stereo not drawn) , tested on palmer (palmer amaranth, palmer pigweed, Amaranthus palmeri): 70

# CC1(C(=O)NC2CC=C(C(=O)OCC(F)(F)F)C2)CN(c2cc(Cl)cc(Cl)c2)C(=O)O1 (stereo not drawn) with palmer (palmer amaranth, palmer pigweed, Amaranthus palmeri): Amaranth, Palmer plant response rating (0 to 100 scale) is 100

Query CC1(C(=O)N[C@H]2C=C[C@@H](C(=O)O)C2)CN(c2cc(F)cc(F)c2)C(=O)O1 (stereo partly drawn) on palmer (palmer amaranth, palmer pigweed, Amaranthus palmeri); Amaranth, Palmer plant response rating (0 to 100 scale) returned: 90

Here CC(C)OC(=O)C1C=CC(NC(=O)C2(C)CN(c3cc(Cl)cc(Cl)c3)C(=O)O2)C1 (stereo not drawn) was tested on palmer (palmer amaranth, palmer pigweed, Amaranthus palmeri), and its Amaranth, Palmer plant response rating (0 to 100 scale) came to 100

Hey, palmer (palmer amaranth, palmer pigweed, Amaranthus palmeri) data for CC1(C(=O)NC2CCC(C(=O)NS(C)(=O)=O)C2)CN(c2cc(F)cc(F)c2)C(=O)O1 (stereo not drawn) : Amaranth, Palmer plant response rating (0 to 100 scale) came out at 0
